Record: compiled pKi on Carbonic anhydrase 4 (Bos taurus, UniProt Q95323) from multiple reports.
# Target of assay: Carbonic anhydrase 4 (Bos taurus, UniProt Q95323)
# Sequence (Q95323 whole entry): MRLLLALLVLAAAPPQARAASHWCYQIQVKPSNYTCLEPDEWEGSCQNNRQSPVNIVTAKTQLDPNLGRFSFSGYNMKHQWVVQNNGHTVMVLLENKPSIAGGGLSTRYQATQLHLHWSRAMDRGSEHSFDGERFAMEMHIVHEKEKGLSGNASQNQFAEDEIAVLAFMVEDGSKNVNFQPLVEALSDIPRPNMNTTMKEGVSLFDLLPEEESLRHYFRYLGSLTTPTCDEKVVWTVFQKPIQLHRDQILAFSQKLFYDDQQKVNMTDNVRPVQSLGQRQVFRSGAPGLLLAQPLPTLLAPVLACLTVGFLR
Scale: negative log10 of molar concentration, which is what pKi denotes.

Record request: pKi value, item CC(C)c1cc(-c2ccccc2)cc(C(C)C)[n+]1CC(=O)/N=c1/sc(S(N)(=O)=O)nn1C.[O-][Cl+3]([O-])([O-])[O-]
7.46

Which value of pKi has been reported for NS(=O)(=O)c1ccc(NC(=S)N2CCCC2C(=O)O)cc1 (stereo unspecified) in the records?
7.17

Entry NS(=O)(=O)c1ccccc1NC(=O)CN(CCOCCOCCN(CC(=O)O)CC(=O)Nc1ccccc1S(N)(=O)=O)CC(=O)O : reported pKi = ?
6.49

Quick one: pKi for CC(C)C(/N=C(\S)Nc1ccc(S(N)(=O)=O)cc1)C(=O)O (stereo unspecified) ?
7.89

Return reported pKi; argument: NCC(=O)NCCC(=O)Nc1nnc(S(N)(=O)=O)s1
8.00

Could you tell me which pKi is on file for NCC(=O)NCC(=O)Nc1ccc(S(N)(=O)=O)cc1F ?
7.35

Quick check: pKi of NS(=O)(=O)c1nnc(NC(=O)CNCCNCC(=O)O)s1 ?
6.89

Query (molecule): NS(=O)(=O)c1nc2ccc(NC(=O)CN(CCN(CCN(CC(=O)O)CC(=O)Nc3ccc4nc(S(N)(=O)=O)sc4c3)CC(=O)O)CC(=O)O)cc2s1 ; field requested: pKi
8.22

Recorded pKi of C[C@H](CCC(=O)Nc1nnc(S(N)(=O)=O)s1)[C@H]1CC[C@H]2[C@@H]3[C@@H](O)C[C@@H]4C[C@H](O)CC[C@]4(C)[C@H]3CC[C@]12C , please.
7.80

May I ask what pKi has been recorded for NS(=O)(=O)c1ccc(NNS(=O)(=O)C(F)(F)C(F)(F)C(F)(F)C(F)(F)C(F)(F)C(F)(F)C(F)(F)C(F)(F)F)cc1 ?
6.07

Tell me the measured pKi of NS(=O)(=O)c1ccc(NC(=O)CN(CCN(CC(=O)O)CC(=O)O)CC(=O)O)c(Br)c1 , please.
7.30
